- systemName: SiaD (Pseudomonas aeruginosa, UniProt A0A069QEY1)
- measurementDescription: ITC (also HPLC assay of c-di-GMP production from GTP)
pKd: −log10 of the molar value.
experimentalEndpoint: pKd

1. Nc1nc2c(ncn2[C@@H]2O[C@H](COP(=O)(O)OP(=O)(O)OP(=O)(O)O)[C@@H](O)[C@H]2O)c(=O)[nH]1
4.92
